The following compounds have recorded Ki on bovine thrombin (Bos taurus, UniProt P00735).
measuredProperty: Ki (µM)

[[record]]
compound = "N=C(N)c1cccc(NC(=O)CC(=O)N2CCC(Oc3ccc(F)c(F)c3)CC2)c1 [Compound 22c]"
testtarget = "bovine thrombin (Bos taurus, UniProt P00735)"
boundoperator = "="
measurednumber = 27

[[record]]
compound = "N=C(N)c1cccc(NC(=O)CNC(=O)Cc2ccccc2)c1"
testtarget = "bovine thrombin (Bos taurus, UniProt P00735)"
boundoperator = "="
measurednumber = 24.1

[[record]]
compound = "CC(C)N1CCC(Oc2ccc(NC(=O)CC(=O)Nc3cccc(C(=N)N)c3)cc2)CC1 [Compound 23b]"
testtarget = "bovine thrombin (Bos taurus, UniProt P00735)"
boundoperator = ">"
measurednumber = 50

[[record]]
compound = "N=C(N)c1cccc(NC(=O)CC(=O)NCc2ccc(-c3cccc(F)c3)cc2)c1 [Compound 19f]"
testtarget = "bovine thrombin (Bos taurus, UniProt P00735)"
boundoperator = "="
measurednumber = 18.8

[[record]]
compound = "N=C(N)c1ccc(NC(=O)CC(=O)NCc2ccccc2)cc1 [Compound 18a]"
testtarget = "bovine thrombin (Bos taurus, UniProt P00735)"
boundoperator = ">"
measurednumber = 50

[[record]]
compound = "N=C(N)c1cccc(NC(=O)CC(=O)N2CCN(c3ccc(F)cc3)CC2)c1 [Compound 21a]"
testtarget = "bovine thrombin (Bos taurus, UniProt P00735)"
boundoperator = "="
measurednumber = 31.4

[[record]]
compound = "N=C(N)c1cccc(NC(=O)CC(=O)NCc2ccccc2)c1 [Compound 18b]"
testtarget = "bovine thrombin (Bos taurus, UniProt P00735)"
boundoperator = ">"
measurednumber = 50

[[record]]
compound = "N=C(N)c1cccc(NC(=O)CC(=O)NCc2ccc(-c3ccccc3)cc2)c1 [Compound 19d]"
testtarget = "bovine thrombin (Bos taurus, UniProt P00735)"
boundoperator = ">"
measurednumber = 50

[[record]]
compound = "N=C(N)c1cccc(NC(=O)CNC(=O)Cc2ccc(-c3ccc(F)cc3F)cc2)c1"
testtarget = "bovine thrombin (Bos taurus, UniProt P00735)"
boundoperator = "="
measurednumber = 10.7


---

# testTarget: AChE (from electric eel) (Electrophorus electricus)
# Construct: AChE (from electric eel); from tissue
# assayRemarks: biochemical
# conditionParameters: read-out: Ki AchE
pKi: −log10 of the molar value.
measuredProperty: pKi

[[record]]
compound = "N=C(N)c1cccc(NC(=O)CC(=O)NCc2ccc(-c3cccc(F)c3)cc2)c1 [Compound 19f]"
measuredproperty = "pKi"
measurednumber = 5.09


---

# testTarget: human fXa (Homo sapiens)
# Construct: purchased Chromogenix AB-Instrumentation Laboratories (Milan, Italy)
# assayRemarks: biochemical
# conditionParameters: Cheng–Prusoff from IC50, pH 8, mean of three measurements; read-out: Ki fXa
measuredProperty: Ki

[[record]]
compound = "N=C(N)c1cccc(NC(=O)CNC(=O)Cc2ccc(-c3ccc(F)cc3F)cc2)c1"
result = "1010 nM"

[[record]]
compound = "N=C(N)c1ccc(NC(=O)CC(=O)NCCCc2ccccc2)cc1 [Compound 18d]"
result = "39800 nM"

[[record]]
compound = "N=C(N)c1cccc(NC(=O)CC(=O)N2CCC(Oc3ccc(F)cc3F)CC2)c1 [Compound 22b]"
result = "89 nM"

[[record]]
compound = "N=C(N)c1cccc(NC(=O)CC(=O)NCc2ccccc2)c1 [Compound 18b]"
result = "12300 nM"

[[record]]
compound = "N=C(N)c1cccc(NC(=O)CC(=O)NCc2ccc(-c3ccc(F)cc3F)cc2)c1 [Compound 19h]"
result = "57 nM"

[[record]]
compound = "N=C(N)c1cccc(NC(=O)CNC(=O)Cc2ccccc2)c1"
result = "25600 nM"

[[record]]
compound = "N=C(N)c1ccc(NC(=O)CNC(=O)Cc2ccccc2)cc1"
result = "> 50000 nM"

[[record]]
compound = "N=C(N)c1cccc(NC(=O)CC(=O)N2CCC(Oc3ccc(F)cc3)CC2)c1 [Compound 22a]"
result = "350 nM"

[[record]]
compound = "Cc1ccc(CNC(=O)CC(=O)Nc2ccc(C(=N)N)cc2)cc1 [Compound 19a]"
result = "4400 nM"

[[record]]
compound = "N=C(N)c1ccc(NC(=O)CC(=O)NCCc2ccccc2)cc1 [Compound 18c]"
result = "> 50000 nM"

[[record]]
compound = "N=C(N)c1cccc(NC(=O)CC(=O)N2CCC(Oc3ccc(F)c(F)c3)CC2)c1 [Compound 22c]"
result = "120 nM"

[[record]]
compound = "N=C(N)c1cccc(NC(=O)CC(=O)NCc2ccc(-c3ccccc3)cc2)c1 [Compound 19d]"
result = "1560 nM"

[[record]]
compound = "N=C(N)c1ccc(NC(=O)CC(=O)NCc2ccccc2)cc1 [Compound 18a]"
result = "23200 nM"

[[record]]
compound = "N=C(N)c1cccc(NC(=O)CC(=O)NCc2ccc(-c3cc(F)cc(F)c3)cc2)c1 [Compound 19i]"
result = "264 nM"

[[record]]
compound = "N=C(N)c1ccc(NC(=O)CC(=O)NCCCCc2ccccc2)cc1 [Compound 18e]"
result = "18600 nM"

[[record]]
compound = "N=C(N)c1ccc(NC(=O)CC(=O)NCc2ccc(-c3ccccc3)cc2)cc1 [Compound 19c]"
result = "> 50000 nM"

[[record]]
compound = "N=C(N)c1cccc(NC(=O)CC(=O)N2CCN(c3ccc(F)cc3)CC2)c1 [Compound 21a]"
result = "423 nM"

[[record]]
compound = "CC(C)(C(=O)NCc1ccc(-c2ccc(F)cc2F)cc1)C(=O)Nc1cccc(C(=N)N)c1 [Compound 19l]"
result = "214 nM"


---

The following are reported Ki results, target or system bovine thrombin (Bos taurus, UniProt P00735).
measuredProperty: Ki (µM)

[[record]]
compound = "N=C(N)c1cccc(NC(=O)CC(=O)Nc2ccc(OC3CCNCC3)cc2)c1 [Compound 23a]"
testtarget = "bovine thrombin (Bos taurus, UniProt P00735)"
measurednumber = 42.4

[[record]]
compound = "N=C(N)c1cccc(NC(=O)CC(=O)Nc2cccc(OCCc3ccc(F)cc3)c2)c1 [Compound 20a]"
testtarget = "bovine thrombin (Bos taurus, UniProt P00735)"
measurednumber = 12

[[record]]
compound = "Cc1ccc(CNC(=O)CC(=O)Nc2cccc(C(=N)N)c2)cc1 [Compound 19b]"
testtarget = "bovine thrombin (Bos taurus, UniProt P00735)"
measurednumber = 36.6

[[record]]
compound = "N=C(N)c1cccc(NC(=O)CC(=O)NCc2ccc(-c3ccc(F)cc3)cc2)c1 [Compound 19g]"
testtarget = "bovine thrombin (Bos taurus, UniProt P00735)"
measurednumber = 6.19


---

# testTarget: human fXa (Homo sapiens)
# Construct: purchased Chromogenix AB-Instrumentation Laboratories (Milan, Italy)
# assayRemarks: biochemical
# conditionParameters: Cheng–Prusoff from IC50, pH 8, mean of three measurements; read-out: Ki fXa
log10 Ki for assorted compounds
measuredProperty: log10 Ki (log10 of the value in nM)

[[record]]
compound = "COc1ccc(CCOc2cccc(NC(=O)CC(=O)Nc3cccc(C(=N)N)c3)c2)cc1 [Compound 20b]"
measurednumber = 2.31

[[record]]
compound = "N=C(N)c1cccc(NC(=O)CC(=O)Nc2ccc(OC3CCNCC3)cc2)c1 [Compound 23a]"
measurednumber = 2.77

[[record]]
compound = "CC(C)N1CCC(Oc2ccc(NC(=O)CC(=O)Nc3cccc(C(=N)N)c3)cc2)CC1 [Compound 23b]"
measurednumber = 3.36

[[record]]
compound = "N=C(N)c1cccc(NC(=O)CC(=O)Nc2cccc(OCCc3ccc(F)cc3)c2)c1 [Compound 20a]"
measurednumber = 2.62

[[record]]
compound = "Cc1ccc(CNC(=O)CC(=O)Nc2cccc(C(=N)N)c2)cc1 [Compound 19b]"
measurednumber = 3.62


---

Catalogue of Ki values
# testTarget: AChE (from electric eel) (Electrophorus electricus, UniProt O42275)
# Construct: AChE (from electric eel); from tissue
# Sequence (O42275 24-633): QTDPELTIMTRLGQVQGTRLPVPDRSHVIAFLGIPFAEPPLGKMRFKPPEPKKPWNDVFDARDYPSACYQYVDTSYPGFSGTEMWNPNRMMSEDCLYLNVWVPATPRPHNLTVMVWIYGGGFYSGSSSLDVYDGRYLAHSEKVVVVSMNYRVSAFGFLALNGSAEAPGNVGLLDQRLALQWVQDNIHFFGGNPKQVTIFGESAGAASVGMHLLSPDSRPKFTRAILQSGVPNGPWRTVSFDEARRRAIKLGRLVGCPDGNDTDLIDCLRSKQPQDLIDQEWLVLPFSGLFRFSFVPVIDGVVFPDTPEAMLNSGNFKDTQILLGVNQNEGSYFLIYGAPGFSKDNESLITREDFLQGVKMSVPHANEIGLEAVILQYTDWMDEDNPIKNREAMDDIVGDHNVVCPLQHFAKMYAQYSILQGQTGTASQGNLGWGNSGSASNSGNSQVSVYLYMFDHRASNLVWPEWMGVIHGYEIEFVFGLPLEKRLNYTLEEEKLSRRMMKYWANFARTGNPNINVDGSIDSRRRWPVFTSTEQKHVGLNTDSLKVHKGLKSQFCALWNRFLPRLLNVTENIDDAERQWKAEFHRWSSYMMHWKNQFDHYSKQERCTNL
# assayRemarks: biochemical
# conditionParameters: electric eel AChE, Cheng–Prusoff from IC50; read-out: Ki AchE
measuredProperty: Ki (nM)

[[record]]
compound = "N=C(N)c1cccc(NC(=O)CC(=O)NCc2ccc(-c3ccccc3)cc2)c1 [Compound 19d]"
measuredproperty = "Ki"
measurednumber = 9330

[[record]]
compound = "N=C(N)c1cccc(NC(=O)CC(=O)N2CCC(Oc3ccc(F)cc3)CC2)c1 [Compound 22a]"
measuredproperty = "Ki"
measurednumber = 1880

[[record]]
compound = "N=C(N)c1cccc(NC(=O)CC(=O)NCc2ccc(-c3ccc(F)cc3F)cc2)c1 [Compound 19h]"
measuredproperty = "Ki"
measurednumber = 2440

[[record]]
compound = "COc1ccc(CCOc2cccc(NC(=O)CC(=O)Nc3cccc(C(=N)N)c3)c2)cc1 [Compound 20b]"
measuredproperty = "Ki"
measurednumber = 1560


---

# testTarget: human fXa (Homo sapiens, UniProt P00742)
# Construct: purchased Chromogenix AB-Instrumentation Laboratories (Milan, Italy)
# Sequence (P00742 235-488 limits assumed): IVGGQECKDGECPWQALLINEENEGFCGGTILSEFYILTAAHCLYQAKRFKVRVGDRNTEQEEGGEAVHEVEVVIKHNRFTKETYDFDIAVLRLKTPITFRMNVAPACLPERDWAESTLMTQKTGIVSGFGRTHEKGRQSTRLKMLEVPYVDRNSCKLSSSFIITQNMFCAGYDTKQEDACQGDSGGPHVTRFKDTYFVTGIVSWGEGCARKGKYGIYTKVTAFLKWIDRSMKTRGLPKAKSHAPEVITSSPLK
# Sequence (P00742 41-179 partner limits assumed): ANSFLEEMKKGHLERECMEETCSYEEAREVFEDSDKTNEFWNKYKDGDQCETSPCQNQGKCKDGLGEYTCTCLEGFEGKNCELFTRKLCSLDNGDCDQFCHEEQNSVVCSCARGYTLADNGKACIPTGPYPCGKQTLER
# assayRemarks: biochemical
# conditionParameters: read-out: Ki against fXa
pKi: −log10 of the molar value.
measuredProperty: pKi

[[record]]
compound = "N=C(N)c1cccc(NC(=O)CC(=O)NCc2ccc(-c3ccc(F)cc3F)cc2)c1 [Compound 19h]"
measurednumber = 7.24

